Tested on: DIV17
Experiment: qHTS profiling for inhibitors of Plasmodium falciparum proliferation (AID 504749); note: nearly all actives have a fitted effect of over 60% in size
Conditions: P. falciparum in erythrocytes, SYBR Green DNA, 72 h; series mostly up to 28.7 µM
Records with an inconclusive call do not appear. Calls of active or inactive are those of the source. Calls come from the whole dose curve; as a rule, active = well fitted inhibition curve with a large enough effect; inconclusive = small, poorly fitted or top-dose-only effect; inactive = flat fitted curve, though single readings scatter.
Can you answer with just one of these options? active, inactive

Task item: What was the test verdict on CCCCCCCCCCCC(=O)[O][Sn]([CH2]CCC)([CH2]CCC)[O]C(=O)CCCCCCCCCCC ?
Reply: inactive

Task item: Test call for this molecule, please: CCCCCCCCCCCCCCCCCC(=O)O
Reply: inactive

Task item: Fill in: this test's call for CN1CCN(c2cc3c(nn2)Oc2ccccc2N3C)CC1 is ___
Reply: inactive

Task item: Called result for CC1OC1P(=O)(O)O (configuration not stated)
Reply: inactive

Task item: # lookup: test call for CCC1C(=O)OCC1Cc1cncn1C (configuration not stated)
Reply: inactive

Task item: Any idea what this test logged for N=c1ccn2c(n1)O[C@H]1[C@H](O)[C@@H](CO)O[C@H]12 ?
Reply: inactive

Task item: Record request — test call for [O-][n+]1ccccc1SSc1cccc[n+]1[O-]
Reply: active

Task item: What did this assay record as the result for O=C(CCN1CCN(CCO)CC1)N1c2ccccc2Sc2ccc(C(F)(F)F)cc21 ?
Reply: active

Task item: Dear colleague, could you share the recorded outcome for C=CCCCCCCCCC(=O)O when you have a moment?
Reply: inactive

Task item: Which outcome was entered for the molecule Cc1nc2ccccc2n1Cc1ccc(Cl)cc1 in this test?
Reply: inactive

Task item: Please share the test call associated with CC1(C)S[C@@H]2[C@H](NC(=O)[C@H](NC(=O)N3CCN(S(C)(=O)=O)C3=O)c3ccccc3)C(=O)N2[C@H]1C(=O)O .
Reply: inactive

Task item: Outcome? C=C(Nc1ccc(OCC)cc1)Nc1ccc(OCC)cc1
Reply: inactive

----------
Test: qHTS Assay for Lipid Storage Modulators (AID 1519)
Settings: Drosophila S3 cells, BODIPY lipid droplet/cell ratio, laser cytometry; measured here: lipid channel max response; cells loaded with oleic acid
Inconclusive results are not listed.
measured.property: max response (%)
Return type: number; implicit unit %.

Task item: Fill in: max response of Oc1ccccc1O is ___
Reply: -25.6

Task item: Reported max response for Nc1ccc(O)c(C(=O)O)c1 : what is it?
Reply: -4.44

Task item: max response lookup needed for Nc1nc(Cl)nc2c1ncn2[C@@H]1O[C@H](CO)[C@@H](O)[C@H]1O , thanks.
Reply: 14

Task item: Param item = O=C(O)c1cc([N+](=O)[O-])ccc1NCCCc1ccccc1 ; retrieve measured max response.
Reply: -12.2

Task item: Need max response, item Fc1cccc(/C=N/N=C/c2cccc(F)c2)c1
Reply: -14.5

Task item: What does the data say about its max response? Entry: CN1C2CCC1CC(OC(=O)C(O)c1ccccc1)C2 (configuration not stated)
Reply: 28.9

Task item: Fill in: max response of O=C1CN(/N=C/c2ccc([N+](=O)[O-])o2)C(=O)N1 is ___
Reply: 14.3

----------
Experiment: qHTS of pediatric cancer cell lines to identify multiple opportunities for drug repurposing: Primary screen for Saos-2 cells (AID 1347097); note: nearly all actives have a fitted effect of over 40% in size
Conditions: Saos-2 viability, CellTiter-Glo ATP luminescence, 48 h; series mostly up to 46 µM
Inconclusive results are not listed. Activity calls are given as the source filed them. The call rests on the fitted dose curve; in most records, active means well fitted cell-killing curve with a large enough effect; inconclusive means small, poorly fitted or top-dose-only effect; inactive means no such curve, though single readings can be large or run the other way.
Please answer using one outcome listed in label 1 = active, label 0 = inactive

Task item: I'd appreciate the recorded outcome for CCCCCCCCCCCCCCCCCC(=O)O from this test.
Reply: label 0

Task item: How did this test come out for CCCCCCCCCCCCCCCC(=O)OC(C)C ?
Reply: label 0

Task item: Each compound tested received a call. Report the one for Cc1ccc(C(=O)c2ccc(CC(=O)O)n2C)cc1 .
Reply: label 0

Task item: Tell me the recorded outcome of this test for [O-][n+]1ccccc1SSc1cccc[n+]1[O-] .
Reply: label 1

Task item: Check the results log: what was the call for CC(C(=O)O)c1ccc(C(=O)c2ccccc2)s1 (stereo not drawn) ?
Reply: label 0

Task item: Write down the call the test reported for this compound. Item: COC(=O)Nc1nc2ccc(C(=O)C3CC3)cc2[nH]1
Reply: label 1

Task item: GET /call?item= C#C[C@]1(O)CC[C@H]2[C@@H]3CCc4cc(O)ccc4[C@H]3CC[C@@]21C returns the recorded outcome of this test.
Reply: label 1

Task item: Tell me the recorded outcome of this test for CCCSc1ccc2nc(NC(=O)OC)[nH]c2c1 .
Reply: label 1

Task item: Could you kindly confirm the outcome this assay logged for Cc1c(Nc2ncccc2C(=O)O)cccc1C(F)(F)F ?
Reply: label 0

Task item: Could you check what this test reported for COc1ccc(-c2cc(=S)ss2)cc1 ?
Reply: label 0

Task item: Tell me the assay call for CN(C)CCn1nnnc1SCC1=C(C(=O)O)N2C(=O)[C@@H](NC(=O)Cc3csc(N)n3)[C@H]2SC1 please.
Reply: label 0

Task item: Per the assay record, what outcome was assigned to CN(C)c1ccc(C(=C2C=CC(=[N+](C)C)C=C2)c2ccccc2)cc1 ?
Reply: label 1

Task item: Which outcome was entered for the compound CC(N)C(=O)OC(C)(C)Cc1ccc(Cl)cc1 (stereo not drawn) in this test?
Reply: label 0

Task item: Returns: the outcome recorded for C[N+]1(C)[C@@H]2CC(OC(=O)[C@H](CO)c3ccccc3)C[C@H]1[C@@H]1O[C@@H]12 (stereo partly drawn) in this assay.
Reply: label 0

Task item: Test call for this compound, please: c1ccc2sc(SSc3nc4ccccc4s3)nc2c1
Reply: label 0

Task item: Please let me know the test result on file for Cc1c(N)c(=O)n(-c2ccccc2)n1C .
Reply: label 0

Task item: What did this assay record as the result for CCOC(=O)c1ccccc1O ?
Reply: label 0

Task item: Which outcome was entered for the compound CCCCCCOc1ccccc1C(N)=O in this test?
Reply: label 0

Task item: For O=C1CN(/N=C/c2ccc([N+](=O)[O-])o2)C(=O)N1 , what call appears in the results of this test?
Reply: label 0

Task item: How was CNC(=O)c1c(I)c(NC(=O)CCCCC(=O)Nc2c(I)c(C(=O)O)c(I)c(C(=O)NC)c2I)c(I)c(C(=O)O)c1I classified in this test?
Reply: label 0

Task item: Would you mind telling me which call this test gave CO[C@@]1(NC(=O)Cc2cccs2)C(=O)N2C(C(=O)O)=C(COC(N)=O)CS[C@@H]21 ?
Reply: label 0

Task item: Hey, what did the test say about O=C(O)Cc1ccc2c(c1)C(=O)c1ccccc1CO2 ?
Reply: label 0

Task item: Returns: the outcome recorded for c1ccc2sc(SN3CCOCC3)nc2c1 in this assay.
Reply: label 0

Task item: What did the test return for Nc1ccc(C(=O)O)c(O)c1 ?
Reply: label 0

Task item: Query: recorded result category for Nc1ccc(O)c(C(=O)O)c1 in this test
Reply: label 0

Task item: Test call for this compound, please: COc1cc(NC(C)CCCN)c2ncccc2c1 (stereo not drawn)
Reply: label 1

Task item: Please let me know the test result on file for Nc1c(CC(=O)O)cccc1C(=O)c1ccc(Br)cc1 .
Reply: label 0

Task item: Short answer needed: outcome of this test for CCCCCCCC/C=C/C(=O)O ?
Reply: label 0

Task item: Just curious, what result did S=c1[nH]c2ccccc2s1 get here?
Reply: label 0

Task item: Call for entry O=C(O)/C=C\C(=O)O :
Reply: label 0

Task item: Outcome logged for COc1cccc2c1C(=O)c1c(O)c3c(c(O)c1C2=O)C[C@@](O)(C(=O)CO)C[C@@H]3O[C@H]1C[C@H](N)[C@H](O[C@@H]2CCCCO2)[C@H](C)O1 in this assay:
Reply: label 1

Task item: Recorded call for Cc1[nH]cnc1CN1CCc2c(c3ccccc3n2C)C1=O ?
Reply: label 0

Task item: Could you check what this test reported for O=C(CCN1CCN(CCO)CC1)N1c2ccccc2Sc2ccc(C(F)(F)F)cc21 ?
Reply: label 0

Task item: Write down the call the test reported for this compound. Item: Nc1cc(-c2ccncc2)c[nH]c1=O
Reply: label 0

Task item: Record lookup: outcome of this test for CCCCCCCCCCCC(=O)[O][Sn]([CH2]CCC)([CH2]CCC)[O]C(=O)CCCCCCCCCCC ?
Reply: label 0

Task item: Recorded test outcome, item COC(=O)C1=C(C)NC(C)=C(C(=O)OCC(C)C)C1c1ccccc1[N+](=O)[O-] (stereo not drawn)
Reply: label 0

Task item: // return assay outcome for O=C(OCc1ccccc1)c1ccccc1
Reply: label 0

Task item: Could you check what this test reported for CC(C)OC(=O)c1cc(C(=O)OC(C)C)cc([N+](=O)[O-])c1 ?
Reply: label 0
